These measurements were taken from PubChem BioAssay (NCI).

system: A549 NSCLC; assay: NCI tumour cell line growth inhibition, 48 h; in the data active = GI50 below about 0.43 µM; inactive = the rest
Possible outcomes: active, inactive

# Compound, Cat
data = [
    ("C=C1C(=O)O[C@H]2[C@H]1CC/C(CNC(=O)/C=C/c1ccccc1)=C\\CC[C@@]1(C)O[C@@H]21", "inactive"),
    ("C=C1CC[C@@H]2[C@](C)(COC(C)=O)[C@H](OC(C)=O)CC[C@@]2(C)[C@@H]1CC(Nc1ccc(S(=O)(=O)Nc2nccs2)cc1)C1=CCOC1=O (stereo partly specified)", "inactive"),
    ("Cc1c2ccncc2c(C)c2c1c1cc(CO)ccc1n2C", "active"),
    ("CCN1C(=O)N(CC)C2C1NN=c1s/c(=C\\c3ccc[nH]3)c(=O)n12 (stereo unspecified)", "inactive"),
    ("Cc1cccc2c(Nc3ccc(NS(C)(=O)=O)cc3)c3ccc([N+](=O)[O-])cc3nc12", "active"),
    ("CCN(CC)CCC(CNc1c(C)cnc2cc(Cl)ccc12)c1ccc(Cl)cc1 (stereo unspecified)", "inactive"),
]
